test system: MMP1 expression by SFs; assay: 'MMP assay': MMP1 expression by 'complex trigger' activated synovial fibroblasts (MMP1 ELISA); format: cell-based, human; conditions: Homo sapiens, Fibroblast, RASFs, 48 hrs
pEC50: −log10 of the molar value.
# reported pEC50; entries follow

> print(dat)
                                   molecule  parameter.measured  value.observed
1  NC(=O)c1coc(-c2cnc(Nc3ccc(N4CCOCC4)cc3)c3nccn23)c1               pEC50    6.30 to 7.00
2  CCc1cnc2c(Nc3ccc(N4CCOCC4)cc3)ncc(-c3cn[nH]c3)n12               pEC50    6.00 to 6.30
3  c1cn2c(-c3cn[nH]c3C3CC3)cnc(Nc3ccc(N4CCOCC4)cc3)c2n1               pEC50          < 6.00
4  CN1CCN(c2ccc(Nc3ncc(-c4cn[nH]c4C(F)(F)F)n4ccnc34)cc2)CC1               pEC50          < 6.00
5  O=C(NC1CCNC1)c1ccc(Nc2ncc(-c3cn[nH]c3)n3ccnc23)cc1 (stereo not drawn)               pEC50          < 6.00

With those in mind, consider the next molecule.
**Q:** Look at this molecule and give its reported pEC50. NC(=O)c1ccc(-c2cnc(Nc3ccc(N)cc3)c3nccn23)cc1
**A:** < 6.00
